Biological target: Chloroperoxidase (CPO) (Leptoxyphium fumago, UniProt P04963)
Sequence (P04963 21-319): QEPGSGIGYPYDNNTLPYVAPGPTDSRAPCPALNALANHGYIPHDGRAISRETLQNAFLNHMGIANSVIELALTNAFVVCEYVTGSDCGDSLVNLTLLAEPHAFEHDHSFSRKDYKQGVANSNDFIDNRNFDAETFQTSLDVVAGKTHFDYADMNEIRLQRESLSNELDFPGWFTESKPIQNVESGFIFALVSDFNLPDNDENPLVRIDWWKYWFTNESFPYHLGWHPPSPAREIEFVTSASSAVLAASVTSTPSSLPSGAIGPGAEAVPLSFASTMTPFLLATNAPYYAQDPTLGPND
PARAMETER: Kd

# query: Kd | item c1ccc2[nH]ccc2c1 | system: Chloroperoxidase (CPO) (Leptoxyphium fumago, UniProt P04963)
~21 mM
